The values you see were collected from paper PMC9145754.

System: U118 cells
assay_overview: MTT cytotoxicity assay, U118
Type: cell-based
condition_details: Homo sapiens, 24 h, read-out: IC50, Glioblastoma, U118
parameter: pIC50
Numbers only, as −log10 of the molar value.

CC1(C)C(=O)C(C#N)=C[C@]2(C)C3=CC(=O)[C@@H]4[C@@H]5C[C@@](C)(C(=O)NCCc6c[nH]c7ccccc67)CC[C@]5(C)CC[C@@]4(C)[C@]3(C)CC[C@@H]12: 5.72
CC1(C)C(=O)C(C#N)=C[C@]2(C)C3=CC(=O)[C@@H]4[C@@H]5C[C@@](C)(C(=O)Nc6ccc(Br)cc6)CC[C@]5(C)CC[C@@]4(C)[C@]3(C)CCC12 (stereo partly shown): 5.70
CN(C)CCCNC(=O)[C@@]1(C)CC[C@]2(C)CC[C@]3(C)[C@H](C(=O)C=C4[C@@]5(C)C=C(C#N)C(=O)C(C)(C)C5CC[C@]43C)[C@@H]2C1 (stereo partly shown): 5.28
COC(=O)[C@@]1(C)CC[C@]2(C)CC[C@]3(C)[C@H](C(=O)C=C4[C@@]5(C)C=C(C#N)C(=O)C(C)(C)C5CC[C@]43C)[C@@H]2C1 (stereo partly shown) [SM, soloxolone methyl, reference compound]: 5.72

// each compound listed below needs its pIC50
1. Cc1ccc(NC(=O)[C@@]2(C)CC[C@]3(C)CC[C@]4(C)[C@H](C(=O)C=C5[C@@]6(C)C=C(C#N)C(=O)C(C)(C)C6CC[C@]54C)[C@@H]3C2)cc1 (stereo partly shown)
2. CC1(C)C(=O)C(C#N)=C[C@]2(C)C3=CC(=O)[C@@H]4[C@@H]5C[C@@](C)(C(=O)NCCCCCO)CC[C@]5(C)CC[C@@]4(C)[C@]3(C)CCC12 (stereo partly shown)

[5.72, 5.51]

What measured pIC50 is associated with CN(C)CCNC(=O)[C@@]1(C)CC[C@]2(C)CC[C@]3(C)[C@H](C(=O)C=C4[C@@]5(C)C=C(C#N)C(=O)C(C)(C)C5CC[C@]43C)[C@@H]2C1 (stereo partly shown) on U118 cells? 5.42

----------
Test system: HeLa cells
assay_overview: MTT cytotoxicity assay, HeLa
Format: cell-based
condition_details: Homo sapiens, 24 h, read-out: IC50, Cervix, HeLa
Exercise: state measured pIC50 for each of the molecules provided.
Answers are plain numbers, as −log10 of the molar value.

Worked set:
CN(C)CCCNC(=O)[C@@]1(C)CC[C@]2(C)CC[C@]3(C)[C@H](C(=O)C=C4[C@@]5(C)C=C(C#N)C(=O)C(C)(C)C5CC[C@]43C)[C@@H]2C1 (stereo partly shown): 5.31
CC1(C)C(=O)C(C#N)=C[C@]2(C)C3=CC(=O)[C@@H]4[C@@H]5C[C@@](C)(C(=O)NCCO)CC[C@]5(C)CC[C@@]4(C)[C@]3(C)CCC12 (stereo partly shown): 5.82
CC1(C)C(=O)C(C#N)=C[C@]2(C)C3=CC(=O)[C@@H]4[C@@H]5C[C@@](C)(C(=O)NCCCCCO)CC[C@]5(C)CC[C@@]4(C)[C@]3(C)CCC12 (stereo partly shown): 5.64
CC1(C)C(=O)C(C#N)=C[C@]2(C)C3=CC(=O)[C@@H]4[C@@H]5C[C@@](C)(C(=O)NCCCO)CC[C@]5(C)CC[C@@]4(C)[C@]3(C)CCC12 (stereo partly shown): 5.46
CC1(C)C(=O)C(C#N)=C[C@]2(C)C3=CC(=O)[C@@H]4[C@@H]5C[C@@](C)(C(=O)Nc6ccc(Br)cc6)CC[C@]5(C)CC[C@@]4(C)[C@]3(C)CCC12 (stereo partly shown): 5.82

Give pIC50 for each of the items listed below.
1. CC(C)(C)c1cc(CCCNC(=O)[C@@]2(C)CC[C@]3(C)CC[C@]4(C)[C@H](C(=O)C=C5[C@@]6(C)C=C(C#N)C(=O)C(C)(C)C6CC[C@]54C)[C@@H]3C2)cc(C(C)(C)C)c1O (stereo partly shown)
2. CN(C)CCNC(=O)[C@@]1(C)CC[C@]2(C)CC[C@]3(C)[C@H](C(=O)C=C4[C@@]5(C)C=C(C#N)C(=O)C(C)(C)C5CC[C@]43C)[C@@H]2C1 (stereo partly shown)
3. Cc1ccc(NC(=O)[C@@]2(C)CC[C@]3(C)CC[C@]4(C)[C@H](C(=O)C=C5[C@@]6(C)C=C(C#N)C(=O)C(C)(C)C6CC[C@]54C)[C@@H]3C2)cc1 (stereo partly shown)

[5.60, 5.59, 5.80]

Value sought for every listed molecule: pIC50.
1. COC(=O)[C@@]1(C)CC[C@]2(C)CC[C@]3(C)[C@H](C(=O)C=C4[C@@]5(C)C=C(C#N)C(=O)C(C)(C)C5CC[C@]43C)[C@@H]2C1 (stereo partly shown) [SM, soloxolone methyl, reference compound]
2. CC1(C)C(=O)C(C#N)=C[C@]2(C)C3=CC(=O)[C@@H]4[C@@H]5C[C@@](C)(C(=O)O)CC[C@]5(C)CC[C@@]4(C)[C@]3(C)CCC12 (stereo partly shown)
3. COCCNC(=O)[C@@]1(C)CC[C@]2(C)CC[C@]3(C)[C@H](C(=O)C=C4[C@@]5(C)C=C(C#N)C(=O)C(C)(C)C5CC[C@]43C)[C@@H]2C1 (stereo partly shown)
4. CC1(C)C(=O)C(C#N)=C[C@]2(C)C3=CC(=O)[C@@H]4[C@@H]5C[C@@](C)(C(=O)Nc6cccnc6)CC[C@]5(C)CC[C@@]4(C)[C@]3(C)CCC12 (stereo partly shown)
5. CC1(C)C(=O)C(C#N)=C[C@]2(C)C3=CC(=O)[C@@H]4[C@@H]5C[C@@](C)(C(=O)NCCc6c[nH]c7ccccc67)CC[C@]5(C)CC[C@@]4(C)[C@]3(C)CC[C@@H]12

5.89
5.00
5.82
5.74
5.82

----------
System: U118 cells
assay_overview: MTT cytotoxicity assay, U118
Assay type: cell-based
condition_details: Homo sapiens, 24 h, read-out: IC50, Glioblastoma, U118
Description: To evaluate the antitumor activity of the synthesized soloxolone amides in brain tumor cells, the cytotoxicity of compounds 4–12, predicted as BBB-permeable (Figure 3), was further analyzed in human glioblastoma U87 and U118 cells, as well as human neuroblastoma KELLY and murine neuroblastoma Neuro2a cells. […]
parameter: pIC50
Give bare numbers, as −log10 of the molar value.

Reference set (2 entries):
CC1(C)C(=O)C(C#N)=C[C@]2(C)C3=CC(=O)[C@@H]4[C@@H]5C[C@@](C)(C(=O)Nc6cccnc6)CC[C@]5(C)CC[C@@]4(C)[C@]3(C)CCC12 (stereo partly drawn) [compound 10]: 5.68
COCCNC(=O)[C@@]1(C)CC[C@]2(C)CC[C@]3(C)[C@H](C(=O)C=C4[C@@]5(C)C=C(C#N)C(=O)C(C)(C)C5CC[C@]43C)[C@@H]2C1 (stereo partly drawn) [compound 5]: 5.15

Please turn your attention to the following entry.
Need pIC50 of CC(C)(C)c1cc(CCCNC(=O)[C@@]2(C)CC[C@]3(C)CC[C@]4(C)[C@H](C(=O)C=C5[C@@]6(C)C=C(C#N)C(=O)C(C)(C)C6CC[C@]54C)[C@@H]3C2)cc(C(C)(C)C)c1O (stereo partly drawn) [compound 11] , thanks. 5.72
